# pEC50 values compiled below
# system-name: JAK3 (Homo sapiens (Human))
# Sequence (P52333 822-1111): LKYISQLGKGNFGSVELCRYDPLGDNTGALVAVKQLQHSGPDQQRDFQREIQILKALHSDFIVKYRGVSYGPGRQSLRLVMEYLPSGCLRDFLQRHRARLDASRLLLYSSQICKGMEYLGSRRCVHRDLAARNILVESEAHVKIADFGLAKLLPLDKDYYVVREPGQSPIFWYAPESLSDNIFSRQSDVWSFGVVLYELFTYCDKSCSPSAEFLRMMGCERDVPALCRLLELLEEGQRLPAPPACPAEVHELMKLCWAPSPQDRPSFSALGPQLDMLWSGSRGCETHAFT
# assay-remarks: JAK kinase assay (HTRF), JAK3
# test-parameters: catalytic domain, ATP at Km (2 μM)
Scale note: pEC50 = -log10(concentration in M).

A selection of reference data follows.
- C[C@H](NC(=O)[C@H]1CCN(c2ncnc3[nH]ccc23)CC12CC2)c1ccc(C#N)cc1: 8.15
- N#C[C@H]1CC[C@H](CNC(=O)C2CCN(c3ncnc4[nH]ccc34)CC23CC3)C1 (stereo partly shown): 7.35
- O=C(N[C@@H](CO)[C@H](O)c1ccc(F)cn1)[C@H]1CCN(c2ncnc3[nH]ccc23)CC12CC2 (single isomer, unassigned): 7.57

Could you now consider this next compound?
[ask] Please give the measured pEC50 for this compound: "COc1cc(C#N)ccc1[C@H](C)NC(=O)[C@H]1CCN(c2ncnc3[nH]ccc23)CC12CC2"
[reply] 6.65
